Biological target: HDAC2 (Homo sapiens)
Construct: purchased BPS Bioscience 50002
Sequence (Q92769 whole entry): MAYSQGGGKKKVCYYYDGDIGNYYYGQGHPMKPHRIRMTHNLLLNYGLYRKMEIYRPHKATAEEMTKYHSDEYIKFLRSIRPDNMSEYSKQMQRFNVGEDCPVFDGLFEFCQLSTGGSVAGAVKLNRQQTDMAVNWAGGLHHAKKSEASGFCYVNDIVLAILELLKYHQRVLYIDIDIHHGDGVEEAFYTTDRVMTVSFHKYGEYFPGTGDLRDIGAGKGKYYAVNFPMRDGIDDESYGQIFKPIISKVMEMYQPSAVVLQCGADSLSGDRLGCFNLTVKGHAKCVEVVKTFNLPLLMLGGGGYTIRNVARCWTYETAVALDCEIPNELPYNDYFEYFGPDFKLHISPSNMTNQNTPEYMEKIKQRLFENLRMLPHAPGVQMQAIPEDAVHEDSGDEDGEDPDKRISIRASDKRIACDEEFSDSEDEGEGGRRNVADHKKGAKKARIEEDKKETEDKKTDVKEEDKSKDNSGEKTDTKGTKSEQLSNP
Test: HDAC-Glo I/II assay, HDAC2
Assay type: biochemical
Details: recombinant human HDAC2, HDAC-Glo; read-out: pIC50 HDAC2 Glo (converted)
The entries below come with measured IC50 values attached.
Report only the number, with the unit µM understood.

Consider the reported IC50 for these molecules:
> print(dat)
                                   molecule  observation.type  reported.value
1  CN(CCCC(=O)NO)CCc1nc2ccccc2[nH]1 [DKFZ-773]              IC50            25.1
2  CN(CCCC(=O)NO)CCCc1nc2ccccc2[nH]1 [DKFZ-805]              IC50            50.1
3  CN(CCCC(=O)NO)CCNC(=O)c1c2ccccc2cc2ccccc12 [DKFZ-771]              IC50            3.98
4  CN(CCNC(=O)CS)CCNC(=O)c1ccccc1 [DKFZ-825]              IC50            12.6
5  CN(CCCC(=O)NO)CCNC(=O)c1ccccc1 [DKFZ-728]              IC50            50.1

Now look at this one.
Documented IC50 of COc1ccc(C(=O)NCCN(C)CCCC(=O)NO)c2ccccc12 [DKFZ-774] : 12.6
